- CONDITION_NOTES: buffer; pH 7.4; 200.0 µM
Listed below: solubility kinetic values for each entry.
The response must be a number in µg/mL with no trailing unit.

- COMPOUND: "O=C(CN1CCCCCC1)Nc1ccc([N+](=O)[O-])cc1Br"
  READOUT_UNITS: "µg/mL"
  ASSAY_VALUE: 3
- COMPOUND: "COc1ccccc1N1CC(C)(C)C(=O)N(C(=O)c2ccc(C)cc2)C1=S"
  READOUT_UNITS: "µg/mL"
  ASSAY_VALUE: 2.1
- COMPOUND: "COc1ccc(CNC(=O)c2cc(=O)c3ccccc3o2)cc1"
  READOUT_UNITS: "µg/mL"
  ASSAY_VALUE: 12
- COMPOUND: "CCOc1ccc(-n2c(C)c(C(=O)O)c3cc(OC)ccc32)cc1"
  READOUT_UNITS: "µg/mL"
  ASSAY_VALUE: 6.3
- COMPOUND: "COc1ccc(CCNC(=O)COc2ccc3c(C)cc(=O)oc3c2)cc1"
  READOUT_UNITS: "µg/mL"
  ASSAY_VALUE: 6

Qu. Query (compound): CN(C)c1ccc(NC(=O)Nc2cccc3ccccc23)cc1 ; field requested: solubility kinetic
Ans. 2.6

Qu. Query (compound): Cc1cc(C(=O)COC(=O)C(C)NC(N)=O)c(C)n1Cc1ccco1 (stereo unspecified) ; field requested: solubility kinetic
Ans. 45.7

Qu. Query (compound): Cc1nc(-c2ccc([N+](=O)[O-])cc2)c(-c2ccccc2)o1 ; field requested: solubility kinetic
Ans. 5.1

Qu. Query (compound): CCn1cc(C(=O)O)c(=O)c2cnc(N3CCN(C(=S)Nc4ccccc4)CC3)nc21 ; field requested: solubility kinetic
Ans. 27.2

Qu. Query (compound): Cc1ccc2c(CN3CCC(C(N)=O)CC3)cc(=O)oc2c1C ; field requested: solubility kinetic
Ans. 46.2

Qu. Query (compound): O=c1c2[nH]c3ccc(F)cc3c2ncn1Cc1ccncc1 ; field requested: solubility kinetic
Ans. 3.3

Qu. Query (compound): Cc1ccc(C(=O)COC(=O)c2cnccn2)cc1C ; field requested: solubility kinetic
Ans. 38.7

Qu. Query (compound): O=C(CSc1ccccn1)N1CCc2ccccc21 ; field requested: solubility kinetic
Ans. 3.7

Qu. Query (compound): O=C1NC(c2ccc(F)cc2)Oc2ccccc21 (stereo unspecified) ; field requested: solubility kinetic
Ans. 6.4

Qu. Query (compound): CC1(C)c2ccccc2N2CC(=O)N[C@@]21/C=C/C=C/c1ccccc1 ; field requested: solubility kinetic
Ans. 0.9

* * *

Listed below: solubility kinetic values for each entry.
- CONDITION_NOTES: buffer; pH 7.4; 200.0 µM

Reference set (2 entries):
- MOLECULE: "COc1ccccc1CNC(=O)c1ccncc1"
  ASSAY_VALUE: "> 36.3 µg/mL"
- MOLECULE: "Cc1cc(C(=O)NC2CCCCC2C)c2ccccc2n1 (configuration not stated)"
  ASSAY_VALUE: "> 42.4 µg/mL"

Qu. Query (molecule): CN1CCN(/N=C/c2ccc(N(C)c3ccccc3)cc2)CC1 ; field requested: solubility kinetic
Ans. > 46.3 µg/mL

Qu. Query (molecule): COC(CN(C)C(C(=O)NC1CCCCC1)c1ccccc1)OC (configuration not stated) ; field requested: solubility kinetic
Ans. > 50.2 µg/mL

Qu. Query (molecule): COc1ccccc1S(=O)(=O)N1CCn2cccc2C1C (configuration not stated) ; field requested: solubility kinetic
Ans. > 46 µg/mL

Qu. Query (molecule): O=C(O)CN1C(=O)C(=O)N(Cc2cccc(F)c2)C1=O ; field requested: solubility kinetic
Ans. > 42 µg/mL

Qu. Query (molecule): C=CCn1c(=NC(=O)c2cccs2)sc2cccc(OC)c21 ; field requested: solubility kinetic
Ans. < 0.4 µg/mL
